target: T1, human HER-2 extracellular domain (HER-2 ECD) (human, UniProt P04626 23-646); experiment: competitive Fab-phage ELISA
T1 construct: range 23-646; also called erbB2; HER2 protein
RECORDED METRIC: pIC50
Lab note: report pIC50 as minus log10 of the concentration in molar units, number only.

# lookup: pIC50 of B10 (Fab, V domains shown) VH: EVQLVESGGGLVQPGGSLRLSCAASGFSIYYSYIHWVRQAPGKGLEWVASIYPSSGYTSYADSVKGRFTISADTSKNTAYLQMNSLRAEDTAVYYCARWWSSGFDYWGQGTLVTVSS VL: DIQMTQSPSSLSASVGDRVTITCRASQDVNTAVAWYQQKPGKAPKLLIYSASSLYSGVPSRFSGSRSGTDFTLTISSLQPEDFATYYCQQSYYSPSTFGQGTKVEIK
8.42

# lookup: pIC50 of B14 (Fab, V domains shown) VH: EVQLVESGGGLVQPGGSLRLSCAASGFSIYYSYIHWVRQAPGKGLEWVASIYPSSGYTSYADSVKGRFTISADTSKNTAYLQMNSLRAEDTAVYYCARWWSSAFDYWGQGTLVTVSS VL: DIQMTQSPSSLSASVGDRVTITCRASQDVNTAVAWYQQKPGKAPKLLIYSASSLYSGVPSRFSGSRSGTDFTLTISSLQPEDFATYYCQQYYYYPYTFGQGTKVEIK
8.87
